System: SK-MEL-28 melanoma
Assay: NCI-60 one-dose screen, 48 h
Settings: 10 µM unless noted
Protocol: Growth inhibition of the SK-MEL-28 human tumor cell line is measured as a screen for anti-cancer activity. Cells are grown in 96 well plates and exposed to the test compound for 48 hours. Compounds are tested at a single concentration, which is 10^-5 M for most compounds. The reported endpoint is percent growth (GI% or GIPRCNT), where numbers from 0 - 100% represent growth inhibition, and numbers from -100% - 0 represent cell death. For example, a value of 40 represents 60% growth inhibition. […]
Compounds without any hit were thinned out: in the full panel of roughly 83,000, 20% have a hit. Calls of active or inactive are those of the source. The calls were made as follows: active = growth percent below 10; inactive = the rest.
Parameter call: string, one of t = active, f = inactive

Examples with answers:
>>> assigned_class("COc1cccc(-c2nc3occn3c2-c2ccnc(NCCNS(=O)(=O)c3ccc(C(F)(F)F)cc3)n2)c1")
"f"
>>> assigned_class("Brc1ccc2[nH]cc(-c3cncn3CCc3ccccc3)c2c1")
"f"
>>> assigned_class("C[C@H]1[C@H](C)CC[C@]2(C(=O)NCC#CCN3CCN(C)CC3)CC[C@]3(C)C(=CC[C@@H]4[C@@]5(C)Cc6c([nH]c7ccccc67)C(C)(C)[C@@H]5CC[C@]43C)[C@H]12")
"f"
>>> assigned_class("Cn1cc(CC2CC(=O)N(c3ccccc3)C2=O)sc1=NC(=O)c1ccccc1 (stereo unspecified)")
"f"
>>> assigned_class("COC(=O)C(CC=O)C(=O)C(=O)Nc1cccc(C(F)(F)F)c1 (stereo unspecified)")
"f"

Could you kindly confirm the outcome this assay logged for `Cc1cc2nc3c4cccc(O)c4n(CCN(C)C)c3nc2cc1C` ? f

Could you kindly confirm the outcome this assay logged for COc1ccccc1NC(=O)C1CC(c2ccc(F)cc2)=NO1 (stereo unspecified) ? f

Could you kindly confirm the outcome this assay logged for `Cc1cc(C(=O)/C=C/c2ccc[nH]2)ccc1-n1ccc(C(F)(F)F)n1` ? f

Could you kindly confirm the outcome this assay logged for `O=Cc1ccc(-c2cn3ccnc3c(-c3ccc4ncn(Cc5ccccc5)c4c3)n2)cc1` ? f

Could you kindly confirm the outcome this assay logged for CCOC(=O)CC1CSC(N/N=C/c2ccc(-n3cccn3)cc2)=N1 (stereo unspecified) ? f

Could you kindly confirm the outcome this assay logged for `COc1ccc(/C=C/c2nc(Nc3ccc(S(=O)(=O)NC(C)=O)cc3)c3ccccc3n2)cc1` ? f

Could you kindly confirm the outcome this assay logged for CC1(C)CC(=O)C2=C(C1)N(c1ccc(F)cc1F)C(N)=C(C#N)C2c1cc(Br)ccc1F (stereo unspecified) ? f

Could you kindly confirm the outcome this assay logged for `CC(=O)OC[C@]12CC[C@@H](C(=O)CBr)[C@@H]1[C@H]1CC[C@@H]3[C@@]4(C)CC[C@H](OC(C)=O)C(C)(C)[C@@H]4CC[C@@]3(C)[C@]1(C)CC2` ? f

----------
test system: SF-295 CNS; assay: NCI-60 one-dose screen, 48 h; details: 10 µM unless noted
The panel holds about 83,000 compounds, 20% with a hit somewhere; the sample as a whole holds those more often. Calls of active or inactive are those of the source. Rule for the calls: active = growth percent below 10; inactive = the rest.
Parameter call: string, one of true (1) for active, false (0) for inactive

Could you kindly confirm the outcome this assay logged for N#CC1=C(/N=C/c2ccccc2)Oc2c(ccc3ccccc23)C1c1ccc([N+](=O)[O-])cc1 (stereo not given) ? false (0)

----------
Test system: OVCAR-5 ovarian
Assay: NCI-60 one-dose screen, 48 h (100 = growth as untreated, 0 = no growth, -100 = all killed)
Details: 10 µM unless noted
Method: Growth inhibition of the OVCAR-5 human tumor cell line is measured as a screen for anti-cancer activity. Cells are grown in 96 well plates and exposed to the test compound for 48 hours. Compounds are tested at a single concentration, which is 10^-5 M for most compounds. The reported endpoint is percent growth (GI% or GIPRCNT), where numbers from 0 - 100% represent growth inhibition, and numbers from -100% - 0 represent cell death. For example, a value of 40 represents 60% growth inhibition. […]
This is part of a sample that, as a whole, favours compounds with a hit. Of some 83,000 tested, about 20% had one in any assay. Active and inactive are the calls of the source. How the source made its calls: active means growth percent below 10; inactive means the rest.
Collected growth values appear next to each entry.

>>> result("O=C(Cn1c[n+](CC(=O)c2ccc(-c3ccccc3)cc2)c2ccccc21)Nc1cccc2cccnc12")
"62.8% (inactive)"
>>> result("COC(=O)C1=C(C(=O)ON)[C@@H]2C=C[C@@]1([C@@H](Cc1ccccc1)Nc1ccccc1)O2")
"89% (inactive)"
>>> result("O=C1c2ccccc2C(=O)c2c([N+](=O)[O-])ccc(Cl)c21")
"135% (inactive)"
>>> result("COc1cc2nc(-c3ccc(Cl)cc3)cc(OCCCN3CCOCC3)c2cc1OC")
"42.8% (inactive)"
>>> result("C#Cc1cccc(NC(=O)Nc2cccc(NC(=O)CCl)c2)c1")
"12.8% [8.25 µM] (inactive)"
>>> result("O=C(/C=C(/C=C/c1csc2ccccc12)OB(F)F)/C=C/c1csc2ccccc12")
"60.6% (inactive)"

Record CC1=CCC(OC(=O)C(C)(O)CCC(O)(C(=O)OC2(C)C=CC(O)(C(C)C)CC2)C(C)C)(C(C)C)CC1 (configuration not stated) . Reported growth: 108% (inactive)

----------
system: T-47D breast; test: NCI-60 one-dose screen, 48 h (100 = growth as untreated, 0 = no growth, -100 = all killed); details: 10 µM unless noted
About 83,000 compounds went through this panel and 20% of them were active in at least one assay; those are over-represented in the sample as a whole.
REPORTED_ENDPOINT: growth (%)
Just the number in %, nothing appended.

>>> result_number("COc1cc(C(=O)Nc2cc3c(cc2Oc2cc(C)cc(C)c2)C(=O)N(C)[C@@H](CC(=O)N(C)O)C(=O)N3)c(Br)c(OC)c1OC")
1.62
>>> result_number("CCCOc1ccc(/C=N/Nc2cc(C)nc3ccc(Br)cc23)cc1")
96.4
>>> result_number("NC(=O)Nc1ccc(-n2cnc3cc(-c4ccc(O)cc4)ccc32)cc1")
59.7
>>> result_number("Cc1nn(-c2ccccc2)c(Cl)c1/C=N\\N=c1/sc2ccccc2n1C")
93.7
>>> result_number("O=S(=O)(NCCNc1nccc(-c2c(-c3cccc(F)c3)nc3sccn23)n1)c1ccc(Br)cc1")
30.5
>>> result_number("CC(Sc1nc2ccccc2c(=O)n1CCc1ccc(S(N)(=O)=O)cc1)C(=O)Nc1ccc(Cl)cc1 (configuration not stated)")
67.6
>>> result_number("NC(=S)N1N=C(c2ccccc2)CC1c1cn(-c2ccccc2)nc1-c1ccc(OCc2ccccc2)cc1 (configuration not stated)")
95.2
>>> result_number("O=C(Nc1ccc(-c2ccc3c(c2)NC(=O)/C3=C\\c2ccc[nH]2)cc1)NC1CC1")
32.1
>>> result_number("Cc1ccc(-n2c3c(c(-c4ccccc4)c2-c2ccccc2)C2=NCCN2C=N3)cc1")
72.7
>>> result_number("CCN(CC)c1ccc(/C=N/NC(=O)CSc2nc3ccccc3c(=O)n2Cc2ccc(S(N)(=O)=O)cc2)c(O)c1")
6.32

Let's switch to this compound now.
Record `COc1cc2c(=O)n(CCCN(C)C)c3c4cc5c(cc4ccc3c2cc1OC)OCO5` . Reported growth: 85.8

----------
tested on: RPMI-8226 leukemia; experiment: NCI-60 one-dose screen, 48 h; conditions: 10 µM unless noted
Compounds without any hit were thinned out: in the full panel of roughly 83,000, 20% have a hit. The source made the active and inactive calls. How the source made its calls: active means growth percent below 10; inactive means the rest.
Parameter call: string, one of active, inactive

Examples with answers:
>>> assigned_class("CCCCCC(=O)Oc1ccc(/C(=C(\\C)c2ccccc2)c2ccc(OCCN3CCCCC3)cc2)cc1")
"inactive"
>>> assigned_class("NC(=NCCCOc1ccc(F)cc1)Nc1ccc(I)cc1")
"inactive"
>>> assigned_class("CCCCCN1C=C/C(=C\\C(=O)N(C)c2ccc(Oc3ccccc3)cc2)c2ccccc21")
"inactive"
>>> assigned_class("Cn1ccnc1C(=O)/C=C/c1ccc(CC(=O)Nc2ccc(Cl)cc2)cc1")
"active"

Now, please, on to the next molecule.
Could you kindly confirm the outcome this assay logged for COc1cc(/C=N/NC(=O)c2cnn3c2NC(c2ccccc2)C3)ccc1OCc1ccccc1 (stereo not drawn) ? inactive

----------
system: NCI/ADR-RES ovarian; test: NCI-60 one-dose screen, 48 h; conditions: 10 µM unless noted
The panel holds about 83,000 compounds, 20% with a hit somewhere; the sample as a whole holds those more often. Active and inactive are the calls of the source. Rule for the calls: active = growth percent below 10; inactive = the rest.
Parameter call: string, one of active, inactive

Examples with answers:
>>> assigned_class("N#CC1=C(/N=C/c2ccccc2)Oc2c(ccc3ccccc23)C1c1ccc([N+](=O)[O-])cc1 (stereo not given)")
"inactive"
>>> assigned_class("COc1cc(/C=N/NC(=O)c2cnn3c2NC(c2ccccc2)C3)ccc1Oc1ccccc1 (stereo not given)")
"inactive"
>>> assigned_class("Oc1c(Cl)cc(Cl)c(Cl)c1CNCCNCc1c(O)c(Cl)cc(Cl)c1Cl")
"active"
>>> assigned_class("COc1ccc(/C=C/c2nc(Nc3ccc(S(=O)(=O)NC(C)=O)cc3)c3ccccc3n2)cc1")
"inactive"
>>> assigned_class("O=C1Nc2cc(-c3cccc(O)c3)ccc2/C1=C/c1ccc[nH]1")
"inactive"

Could you kindly confirm the outcome this assay logged for `COc1cc(/C=C/C(=O)c2nc3cc(F)ccc3nc2C)cc(OC)c1OC` ? inactive

Could you kindly confirm the outcome this assay logged for `COc1ccc(C(=O)CSc2nc(-c3cc(OC)ccc3OC)cc(-c3ccc(Cl)cc3)c2C#N)cc1` ? inactive
